test system: Rattus norvegicus; assay: AUC in rat at 3 mg/kg, po; type: ADME, organism-based, Plasma; set-up: dose 3 mg/kg, route oral; conditions: in vivo
result_type: AUC (µM·h)

- Cc1cc(C(=O)O)nn1Cc1cc(Br)ccc1OCc1ccccc1: 16.3

---

target: Cytochrome P450 2C9 (Homo sapiens)
Sequence (P11712 whole entry): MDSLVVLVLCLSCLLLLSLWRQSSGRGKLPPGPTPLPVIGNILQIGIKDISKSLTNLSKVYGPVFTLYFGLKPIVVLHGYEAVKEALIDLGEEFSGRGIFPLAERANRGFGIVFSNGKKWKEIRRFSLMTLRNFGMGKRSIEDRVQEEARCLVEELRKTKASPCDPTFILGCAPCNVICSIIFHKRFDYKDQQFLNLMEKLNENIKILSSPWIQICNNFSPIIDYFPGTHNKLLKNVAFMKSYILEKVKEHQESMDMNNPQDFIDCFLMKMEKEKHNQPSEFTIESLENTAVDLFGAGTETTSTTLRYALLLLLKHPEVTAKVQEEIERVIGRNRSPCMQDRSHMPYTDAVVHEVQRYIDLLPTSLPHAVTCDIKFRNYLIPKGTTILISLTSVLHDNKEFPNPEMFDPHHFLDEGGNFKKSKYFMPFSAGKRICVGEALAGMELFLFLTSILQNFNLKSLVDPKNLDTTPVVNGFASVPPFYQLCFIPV
pIC50: −log10 of the molar value.
result_type: pIC50

* Cc1cc(C(=O)O)nn1Cc1cc(Br)ccc1OCc1ccccc1 | < 4.00

---

molecular target: Prostaglandin E2 receptor EP1 subtype (Homo sapiens, UniProt P34995); assay: Antagonist activity at EP1 receptor expressed in CHO-K1 cells assessed as inhibition of PGE2-stimulated calcium ion mobilization by FLIPR assay
Sequence (P34995 whole entry): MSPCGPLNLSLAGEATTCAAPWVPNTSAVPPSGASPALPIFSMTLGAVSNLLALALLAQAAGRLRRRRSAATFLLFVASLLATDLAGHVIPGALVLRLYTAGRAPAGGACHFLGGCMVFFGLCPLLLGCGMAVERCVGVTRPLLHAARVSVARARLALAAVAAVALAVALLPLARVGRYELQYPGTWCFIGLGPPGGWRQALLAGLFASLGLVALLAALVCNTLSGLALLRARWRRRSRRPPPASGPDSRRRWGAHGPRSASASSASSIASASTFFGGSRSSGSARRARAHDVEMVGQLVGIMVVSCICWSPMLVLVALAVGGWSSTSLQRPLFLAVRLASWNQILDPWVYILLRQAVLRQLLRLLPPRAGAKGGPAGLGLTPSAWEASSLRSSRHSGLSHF
Lab note - cut at 30 nM for Ki: condition met if strictly below, condition not met if not.

* O=C(O)c1nn(Cc2cc(Br)ccc2OCc2ccccc2)cc1C(F)(F)F | condition not met
* Cc1cn(Cc2cc(Br)ccc2OCc2ccccc2)nc1C(=O)O | condition not met
* O=C(O)c1nn(Cc2cc(Br)ccc2OCc2ccccc2)cc1F | condition not met
* Cc1cc(C(=O)O)nn1Cc1cc(F)ccc1OCc1ccc(Cl)cc1Cl | condition met
* O=C(O)c1cn(Cc2cc(Br)ccc2OCc2ccccc2)cn1 | condition not met
* Cc1cc(C(=O)O)nn1Cc1cc(Br)ccc1OCc1cccc(Br)c1 | condition not met
* Cc1cccc(COc2ccc(Br)cc2Cn2nc(C(=O)O)cc2C)c1 | condition not met
* O=C(O)c1ccnn1Cc1cc(Br)ccc1OCc1ccccc1 | condition not met
* Cc1cc(C(=O)O)nn1Cc1cc(Br)ccc1OCc1ccccc1Cl | condition met
* Cc1cc(C(=O)O)nn1Cc1cc(Cl)ccc1OCc1ccc(Cl)cc1Cl | condition met
* Cc1cc(C(=O)O)nn1Cc1cc(Br)ccc1OCc1ccc(Cl)cc1Cl | condition met
* O=C(O)c1nn(Cc2cc(Br)ccc2OCc2ccccc2)cc1Cl | condition not met
* Cc1cc(C(=O)O)nn1Cc1cc(Cl)ccc1OCc1ccc(F)cc1F | condition met
* Cc1cc(C(=O)O)nn1Cc1ccccc1OCc1ccc(Cl)cc1Cl | condition met
* Cc1cc(C(=O)O)nn1Cc1cc(Br)ccc1OCc1cc(C(F)(F)F)cc(C(F)(F)F)c1 | condition not met
* COc1ccccc1COc1ccc(Br)cc1Cn1nc(C(=O)O)cc1C | condition not met
* CC(=O)Nc1cc(C(=O)O)nn1Cc1cc(Br)ccc1OCc1ccccc1 | condition not met
